test system: A549; test: Cytotoxicity against human A549 cells by MTT assay; type: functional, cell-based
Let's look at some compounds and their measured IC50.
Express your answer in µM, writing the number without its unit.

// below: answered compounds
compound | result_unit | IC50
CC1(C)CC[C@]2(C(=O)O)CC[C@]3(C)C(=CC[C@@H]4[C@@]5(C)CC[C@H](O)C(C)(C)[C@@H]5CC[C@]43C)[C@@H]2C1 [OLEANOLIC_ACID] | µM | 0.39
CC1(C)CC[C@]2(C(=O)O)CC[C@]3(C)C(=CC[C@@H]4[C@@]5(C)CC[C@H](OC(=O)CCN6CCOCC6)C(C)(C)[C@@H]5CC[C@]43C)[C@@H]2C1 | µM | 728
CC1(C)CC[C@]2(C(=O)O)CC[C@]3(C)C(=CC[C@@H]4[C@@]5(C)CC[C@H](OC(=O)Cn6ccnc6)C(C)(C)[C@@H]5CC[C@]43C)[C@@H]2C1 | µM | 16.9

Tell me measured IC50 for CC1(C)CC[C@]2(C(=O)O)CC[C@]3(C)C(=CC[C@@H]4[C@@]5(C)CC[C@H](OC(=O)CN6CCOCC6)C(C)(C)[C@@H]5CC[C@]43C)[C@@H]2C1 please. 8.27

Tell me measured IC50 for CC1(C)CC[C@]2(C(=O)O)CC[C@]3(C)C(=CC[C@@H]4[C@@]5(C)CC[C@H](OC(=O)CCC(=O)NCCS(=O)(=O)O)C(C)(C)[C@@H]5CC[C@]43C)[C@@H]2C1 please. 1.31

Tell me measured IC50 for CC1(C)CC[C@]2(C(=O)O)CC[C@]3(C)C(=CC[C@@H]4[C@@]5(C)CC[C@H](OC(=O)CCn6ccnc6)C(C)(C)[C@@H]5CC[C@]43C)[C@@H]2C1 please. 0.22

Tell me measured IC50 for CC1(C)CC[C@]2(C(=O)O)CC[C@]3(C)C(=CC[C@@H]4[C@@]5(C)CC[C@H](OC(=O)C[C@H](O)C(=O)O)C(C)(C)[C@@H]5CC[C@]43C)[C@@H]2C1 please. 0.71

Tell me measured IC50 for CC1(C)CC[C@]2(C(=O)OCC(=O)O)CC[C@]3(C)C(=CC[C@@H]4[C@@]5(C)CC[C@H](OC(=O)CCC(=O)NCCS(=O)(=O)O)C(C)(C)[C@@H]5CC[C@]43C)[C@@H]2C1 please. 268

Tell me measured IC50 for CC1(C)CC[C@]2(C(=O)OCC(=O)O)CC[C@]3(C)C(=CC[C@@H]4[C@@]5(C)CC[C@H](OC(=O)CCC(=O)O)C(C)(C)[C@@H]5CC[C@]43C)[C@@H]2C1 please. 11.9

Tell me measured IC50 for CC1(C)CC[C@]2(C(=O)O)CC[C@]3(C)C(=CC[C@@H]4[C@@]5(C)CC[C@H](OC(=O)CCC(=O)O)C(C)(C)[C@@H]5CC[C@]43C)[C@@H]2C1 [OLEANOLIC ACID 3-O-SUCCINATE] please. 6.57

* * *

test system: A549; experiment: Cytotoxicity against human A549 cells by MTT assay; type: functional, cell-based
outcome_measure: IC50 (µM)
Express your answer in µM, writing the number without its unit.

// below: answered molecules
input_smiles | result_unit | IC50
CC1(C)CC[C@]2(C(=O)OCC(=O)O)CC[C@]3(C)C(=CC[C@@H]4[C@@]5(C)CC[C@H](OC(=O)C[C@H](O)C(=O)O)C(C)(C)[C@@H]5CC[C@]43C)[C@@H]2C1 | µM | 19.3
CC1(C)CC[C@]2(C(=O)O)CC[C@]3(C)C(=CC[C@@H]4[C@@]5(C)CC[C@H](OC(=O)CCN6CCCC6)C(C)(C)[C@@H]5CC[C@]43C)[C@@H]2C1 | µM | 6.12

Okay, next one:
Tell me measured IC50 for CC1(C)CC[C@]2(C(=O)O)CC[C@]3(C)C(=CC[C@@H]4[C@@]5(C)CC[C@H](OC(=O)CN6CCCC6)C(C)(C)[C@@H]5CC[C@]43C)[C@@H]2C1 please. 8.53

Data origin, for the record: ChEMBL document CHEMBL2346627
